# assay_setup: in n-methylformamide, 307.95 K
quantity_kind: solubility (mole fraction)
Write no unit; give the number alone.

Q. Entry `Cc1ccccc1C(=O)O` needs its solubility (mole fraction) filled in; supply it.
A. 0.32

---

# assay_setup: in NMP, 330.15 K
quantity_kind: solubility (mole fraction)
Lab note: jot down the number only; don't add units.

Q. Output solubility (mole fraction) of `O=C(O)c1ccccc1C(=O)O`
A. 0.202

---

# assay_setup: in DMF, 291.15 K
quantity_kind: solubility (mole fraction)

Q. Using known records, supply solubility (mole fraction) for `Cc1ccccc1C(=O)O`
A. 0.329

---

# assay_setup: in NMP, 321.65 K
quantity_kind: solubility (mole fraction)

Q. Output solubility (mole fraction) of `O=C(O)c1ccccc1C(=O)O`
A. 0.158
